system: UniProtKB Q6PHR2
Sequence (Q6PHR2 whole entry, looked up): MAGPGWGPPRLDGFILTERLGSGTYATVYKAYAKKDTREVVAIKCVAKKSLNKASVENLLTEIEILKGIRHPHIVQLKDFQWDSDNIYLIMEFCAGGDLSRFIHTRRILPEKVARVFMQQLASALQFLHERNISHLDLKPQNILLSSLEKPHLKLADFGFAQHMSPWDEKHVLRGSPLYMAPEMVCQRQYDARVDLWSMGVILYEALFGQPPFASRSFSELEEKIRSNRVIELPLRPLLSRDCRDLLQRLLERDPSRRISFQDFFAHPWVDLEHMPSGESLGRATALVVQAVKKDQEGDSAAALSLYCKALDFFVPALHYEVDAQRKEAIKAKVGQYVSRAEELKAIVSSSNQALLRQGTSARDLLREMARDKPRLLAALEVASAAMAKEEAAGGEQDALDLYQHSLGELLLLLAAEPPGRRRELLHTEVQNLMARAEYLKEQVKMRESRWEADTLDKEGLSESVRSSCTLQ
method: KINOMEscan competition binding
applied-conditions: compound 10.0 µM
measured-parameter: kinase still bound, per cent of control (%)
Write the answer as a number in %, unit excluded.

molecule-smiles	kinase still bound, per cent of control / %
C[C@@H](Oc1cc(-n2cnc3ccc(CN4CCN(C)CC4)cc32)sc1C(N)=O)c1ccccc1C(F)(F)F	100

## Task For the molecule COc1cc(C(=O)NC2CCN(C)CC2)ccc1Nc1ncc2c(n1)N(C1CCCC1)CCC(=O)N2C(C)C , what kinase still bound, per cent of control is on record?
## Result 100

## Task Param item: OCCCNc1cc(-c2ccnc(Nc3cccc(Cl)c3)n2)ccn1
## Result 100

## Task Cool, now Cc1cc([C@@H](C)Nc2ccccc2C(=O)O)c2nc(N3CCOCC3)cc(=O)n2c1
## Result 98

## Task Subsequent entry: CC[C@@H]1C(=O)N(C)c2cnc(Nc3ccc(C(=O)NC4CCN(C)CC4)cc3OC)nc2N1C1CCCC1
## Result 100

## Task Ok, now Cn1c(=O)n(-c2ccc(C(C)(C)C#N)cc2)c2c3cc(-c4cnc5ccccc5c4)ccc3ncc21
## Result 100

## Task Please answer likewise for Cc1ccc(C(=O)Nc2cccc(C(F)(F)F)c2)cc1Nc1cncc(C(N)=O)c1
## Result 100

## Task Let us now turn to CCN1CCN(Cc2ccc(Nc3ncc4c(n3)N(C)c3ccccc3C(=O)N4C)cc2C(F)(F)F)CC1
## Result 7.4

## Task Let us now turn to COc1cc(N2CCN(C)CC2)ccc1Nc1nc(N)c(C(=O)c2c(Cl)cccc2Cl)s1
## Result 100

====

system: CLK3 (human)
method: KINOMEscan competition binding
applied-conditions: compound 10.0 µM
measured-parameter: kinase still bound, per cent of control (%)
Report the figure in % without appending any unit label.

molecule-smiles	kinase still bound, per cent of control (%)
C=CC(=O)Nc1cccc(Oc2nc(Nc3ccc(N4CCN(C)CC4)cc3OC)ncc2Cl)c1	100
C=CC(=O)Nc1cccc(Nc2nc(N[C@H]3CC[C@H](N(C)C)CC3)nc3c2ncn3C(C)C)c1	9
CCOc1cc2ncc(C#N)c(Nc3ccc(OCc4ccccn4)c(Cl)c3)c2cc1NC(=O)/C=C/CN(C)C	86
O=C(NC1CC1)c1cccc(-c2ccc3c(NC(=O)C4CC4)n[nH]c3c2)c1	80
CC[C@@H]1C(=O)N(C)c2cnc(Nc3ccc(C(=O)NC4CCN(C)CC4)cc3OC)nc2N1C1CCCC1	29
Nc1ccc(-c2ccc3ncc4ccc(=O)n(-c5cccc(C(F)(F)F)c5)c4c3c2)cn1	71

## Task Can you look up kinase still bound, per cent of control on CLK3 (human) for C[C@@H](Oc1cc(-n2cnc3ccc(CN4CCN(C)CC4)cc32)sc1C(N)=O)c1ccccc1C(F)(F)F ?
## Result 91

## Task Same thing, different compound: CCC(=O)N1CCN(c2ccc(-n3c(=O)ccc4cnc5ccc(-c6cnc7ccccc7c6)cc5c43)cc2C(F)(F)F)CC1
## Result 43

## Task Next entry: Cc1cc([C@@H](C)Nc2ccccc2C(=O)O)c2nc(N3CCOCC3)cc(=O)n2c1
## Result 100

====

This section presents compounds with their documented kinase still bound, per cent of control values.
system: PIK3C2B (human)
method: KINOMEscan competition binding
applied-conditions: compound 10.0 µM
Write down the numeric answer in % and omit the unit.

molecule-smiles	kinase still bound, per cent of control, %
Cc1ccc(NC(=O)c2cccc(C(C)(C)C#N)c2)cc1Nc1ccc2ncn(C)c(=O)c2c1	100

## Task Form entry - test system: PIK3C2B (human); read-out: kinase still bound, per cent of control; compound: Cc1cc([C@@H](C)Nc2ccccc2C(=O)O)c2nc(N3CCOCC3)cc(=O)n2c1
## Result 0.35

## Task Then what about the compound Cc1ccc(C(=O)Nc2cccc(C(F)(F)F)c2)cc1Nc1cncc(C(N)=O)c1 ?
## Result 100

## Task Consider next the compound C[C@@H](Oc1cc(-n2cnc3ccc(CN4CCN(C)CC4)cc32)sc1C(N)=O)c1ccccc1C(F)(F)F in the same way.
## Result 14

## Task Note, next up: CCCS(=O)(=O)Nc1ccc(F)c(C(=O)c2c[nH]c3ncc(-c4ccc(Cl)cc4)cc23)c1F
## Result 100

## Task Next: CN(C)C/C=C/C(=O)Nc1cccc(Nc2ncc3c(n2)N(C)c2ccccc2C(=O)N3C)c1
## Result 56

====

system: UniProt:Q05655
Sequence (Q05655 whole entry, looked up): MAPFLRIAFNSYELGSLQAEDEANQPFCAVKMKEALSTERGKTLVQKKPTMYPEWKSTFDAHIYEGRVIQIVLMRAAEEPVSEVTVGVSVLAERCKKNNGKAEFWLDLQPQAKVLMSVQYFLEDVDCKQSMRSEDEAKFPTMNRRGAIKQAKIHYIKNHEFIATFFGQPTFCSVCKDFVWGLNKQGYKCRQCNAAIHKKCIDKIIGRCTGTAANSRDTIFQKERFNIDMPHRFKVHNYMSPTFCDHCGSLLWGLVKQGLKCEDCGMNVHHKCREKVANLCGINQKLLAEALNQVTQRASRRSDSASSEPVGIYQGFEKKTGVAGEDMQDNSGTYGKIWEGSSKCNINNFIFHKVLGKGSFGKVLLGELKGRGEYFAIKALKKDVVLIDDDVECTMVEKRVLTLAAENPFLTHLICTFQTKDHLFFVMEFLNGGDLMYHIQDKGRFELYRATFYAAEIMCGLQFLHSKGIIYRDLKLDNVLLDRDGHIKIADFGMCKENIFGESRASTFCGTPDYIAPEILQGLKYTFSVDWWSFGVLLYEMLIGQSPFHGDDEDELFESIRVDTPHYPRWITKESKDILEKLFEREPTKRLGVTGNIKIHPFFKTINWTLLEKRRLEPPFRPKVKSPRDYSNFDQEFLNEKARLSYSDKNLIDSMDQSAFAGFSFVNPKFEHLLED
method: KINOMEscan competition binding
applied-conditions: compound 10.0 µM
measured-parameter: kinase still bound, per cent of control (%)
Just the number please, in %, no unit attached.

Would you please look over these solved cases?
molecule-smiles	kinase still bound, per cent of control / %
Nc1ccc(-c2ccc3ncc4ccc(=O)n(-c5cccc(C(F)(F)F)c5)c4c3c2)cn1	88
C[C@@H](Oc1cc(-n2cnc3ccc(CN4CCN(C)CC4)cc32)sc1C(N)=O)c1ccccc1C(F)(F)F	22
O=C1Nc2ccc(I)cc2/C1=C/c1cc(Br)c(O)c(Br)c1	70
CCC(=O)N1CCN(c2ccc(-n3c(=O)ccc4cnc5ccc(-c6cnc7ccccc7c6)cc5c43)cc2C(F)(F)F)CC1	82

// below: kinase still bound, per cent of control requested for another compound
## Task Any idea what kinase still bound, per cent of control came out for CC[C@@H]1C(=O)N(C)c2cnc(Nc3ccc(C(=O)NC4CCN(C)CC4)cc3OC)nc2N1C1CCCC1 on UniProt:Q05655?
## Result 100

====

The entries below come with measured kinase still bound, per cent of control values attached.
system: CAMK2A (human) (UniProt Q9UQM7)
Sequence (Q9UQM7 whole entry, looked up): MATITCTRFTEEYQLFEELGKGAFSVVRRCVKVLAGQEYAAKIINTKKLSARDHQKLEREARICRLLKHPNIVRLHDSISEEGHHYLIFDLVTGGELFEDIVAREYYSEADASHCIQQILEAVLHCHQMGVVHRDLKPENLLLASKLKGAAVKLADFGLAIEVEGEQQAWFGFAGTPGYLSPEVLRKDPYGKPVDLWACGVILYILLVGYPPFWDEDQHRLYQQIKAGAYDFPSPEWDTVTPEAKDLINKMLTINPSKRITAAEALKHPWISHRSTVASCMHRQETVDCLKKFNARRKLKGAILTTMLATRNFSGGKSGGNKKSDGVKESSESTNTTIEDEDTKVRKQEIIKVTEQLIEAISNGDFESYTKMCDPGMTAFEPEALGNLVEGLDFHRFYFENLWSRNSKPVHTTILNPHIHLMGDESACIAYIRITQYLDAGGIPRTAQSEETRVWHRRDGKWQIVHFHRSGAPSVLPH
method: KINOMEscan competition binding
applied-conditions: compound 10.0 µM
Lab book: enter the figure in %, no units written.

Worked set:
molecule-smiles	u	recorded-result
Cc1ccc(NC(=O)c2cccc(C(C)(C)C#N)c2)cc1Nc1ccc2ncn(C)c(=O)c2c1	%	100
Cn1c(=O)n(-c2ccc(C(C)(C)C#N)cc2)c2c3cc(-c4cnc5ccccc5c4)ccc3ncc21	%	100
Nc1ccc(-c2ccc3ncc4ccc(=O)n(-c5cccc(C(F)(F)F)c5)c4c3c2)cn1	%	83
C=CC(=O)Nc1cccc(Oc2nc(Nc3ccc(N4CCN(C)CC4)cc3OC)ncc2Cl)c1	%	100
COc1cc(N2CCN(C)CC2)ccc1Nc1nc(N)c(C(=O)c2c(Cl)cccc2Cl)s1	%	20

## Task // lookup kinase still bound, per cent of control | system=CAMK2A (human) (UniProt Q9UQM7) | key= COc1cc(C(=O)NC2CCN(C)CC2)ccc1Nc1ncc2c(n1)N(C1CCCC1)CCC(=O)N2C(C)C
## Result 100

## Task # iterate: Cc1cc([C@@H](C)Nc2ccccc2C(=O)O)c2nc(N3CCOCC3)cc(=O)n2c1
## Result 75

## Task Follow-up entry: CN(C)C/C=C/C(=O)Nc1cccc(Nc2ncc3c(n2)N(C)c2ccccc2C(=O)N3C)c1
## Result 32

## Task Request: C=CC(=O)Nc1cccc(Nc2nc(N[C@H]3CC[C@H](N(C)C)CC3)nc3c2ncn3C(C)C)c1
## Result 34

====

system: MAP3K9 (human)
method: KINOMEscan competition binding
applied-conditions: compound 10.0 µM
measured-parameter: kinase still bound, per cent of control

molecule-smiles	system	recorded-result
CC[C@@H]1C(=O)N(C)c2cnc(Nc3ccc(C(=O)NC4CCN(C)CC4)cc3OC)nc2N1C1CCCC1	MAP3K9 (human)	100%
N#Cc1c(NC(=O)c2cccc3ccccc23)sc2c1CCCC2	MAP3K9 (human)	72%
C[C@@H](Oc1cc(-n2cnc3ccc(CN4CCN(C)CC4)cc32)sc1C(N)=O)c1ccccc1C(F)(F)F	MAP3K9 (human)	17%
Cn1c(=O)n(-c2ccc(C(C)(C)C#N)cc2)c2c3cc(-c4cnc5ccccc5c4)ccc3ncc21	MAP3K9 (human)	100%

## Task Can you look up kinase still bound, per cent of control on MAP3K9 (human) for CCN1CCN(Cc2ccc(Nc3ncc4c(n3)N(C)c3ccccc3C(=O)N4C)cc2C(F)(F)F)CC1 ?
## Result 58%

====

system: UniProt Q96SB4
Sequence (Q96SB4 whole entry, looked up): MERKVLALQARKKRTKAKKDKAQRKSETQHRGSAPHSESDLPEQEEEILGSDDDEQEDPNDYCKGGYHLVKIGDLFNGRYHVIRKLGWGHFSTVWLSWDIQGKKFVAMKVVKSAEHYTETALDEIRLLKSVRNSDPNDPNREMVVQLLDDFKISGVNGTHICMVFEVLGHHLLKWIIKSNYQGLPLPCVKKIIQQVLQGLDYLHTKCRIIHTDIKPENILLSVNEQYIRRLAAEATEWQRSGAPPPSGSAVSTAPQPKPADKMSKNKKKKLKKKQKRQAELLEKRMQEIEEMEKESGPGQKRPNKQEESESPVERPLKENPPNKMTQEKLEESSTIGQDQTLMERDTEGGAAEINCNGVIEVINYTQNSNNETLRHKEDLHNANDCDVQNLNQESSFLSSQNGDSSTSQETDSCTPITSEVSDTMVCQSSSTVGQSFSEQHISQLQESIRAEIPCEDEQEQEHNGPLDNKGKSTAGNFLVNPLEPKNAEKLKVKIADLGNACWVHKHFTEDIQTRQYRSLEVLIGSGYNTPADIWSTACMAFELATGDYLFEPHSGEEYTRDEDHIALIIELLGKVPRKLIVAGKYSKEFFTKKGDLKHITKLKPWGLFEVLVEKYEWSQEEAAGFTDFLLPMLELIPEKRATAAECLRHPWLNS
method: KINOMEscan competition binding
applied-conditions: compound 10.0 µM
measured-parameter: kinase still bound, per cent of control (%)
Quick note: give the figure in %, leave out the unit.

compound	measured-parameter	recorded-result
Cc1ccc2nc(NCCN)c3ncc(C)n3c2c1	kinase still bound, per cent of control	100
COc1cc(N2CCN(C)CC2)ccc1Nc1nc(N)c(C(=O)c2c(Cl)cccc2Cl)s1	kinase still bound, per cent of control	100
O=C(O)c1ccc(Nc2ncc3c(n2)-c2ccc(Cl)cc2C(c2c(F)cccc2F)=NC3)cc1	kinase still bound, per cent of control	100
COc1cc(C(=O)NC2CCN(C)CC2)ccc1Nc1ncc2c(n1)N(C1CCCC1)C(C)CC(=O)N2C (stereo not given)	kinase still bound, per cent of control	100

## Task Param readout = kinase still bound, per cent of control; param system = UniProt Q96SB4; param query = CCCS(=O)(=O)Nc1ccc(F)c(C(=O)c2c[nH]c3ncc(-c4ccc(Cl)cc4)cc23)c1F ; response: value
## Result 92
